Data provenance: patent US20240209076A1

system name: T1, recombinant human IL-6 (human, UniProt P05231 30-212)
T1 construct: Flowed in solution over the captured antibodies
T1 sequence (P05231 30-212 limits assumed): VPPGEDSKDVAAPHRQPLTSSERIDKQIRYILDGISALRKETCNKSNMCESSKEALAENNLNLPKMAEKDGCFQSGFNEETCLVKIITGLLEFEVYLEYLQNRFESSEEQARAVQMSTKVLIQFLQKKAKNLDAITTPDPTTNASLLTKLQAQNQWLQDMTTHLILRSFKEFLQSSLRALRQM
assay comment: SPR (Biacore), supernatant IgG on Protein A, 25 C
Entries and their measured pKd follow.
Quick note: pKd values are minus log10 of concentrations in mol/L.

anti-IL-6 antibody, heavy chain S35H, light chain WT (antibody, IgG1, V domains shown, Full IgG1 tested; V domains derived as in m2) VH: EVQLVESGGGLVQPGGSLRLSCAASGFTFSPFAMHWVRQAPGKGLEWVAKISPGGSWTYYSDTVTGRFTFSLDTSKSTAYLQMNSLRAEDTAVYYCARQLWGYYALDIWGQGTLVTVSS VL: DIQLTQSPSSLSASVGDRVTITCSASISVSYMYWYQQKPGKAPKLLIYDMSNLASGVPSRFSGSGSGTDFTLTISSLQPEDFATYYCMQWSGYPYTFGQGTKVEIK
9.42
anti-IL-6 antibody, heavy chain L106F, light chain WT (antibody, IgG1, V domains shown, Full IgG1 tested; V domains derived as in m2) VH: EVQLVESGGGLVQPGGSLRLSCAASGFTFSPFAMSWVRQAPGKGLEWVAKISPGGSWTYYSDTVTGRFTFSLDTSKSTAYLQMNSLRAEDTAVYYCARQLWGYYAFDIWGQGTLVTVSS VL: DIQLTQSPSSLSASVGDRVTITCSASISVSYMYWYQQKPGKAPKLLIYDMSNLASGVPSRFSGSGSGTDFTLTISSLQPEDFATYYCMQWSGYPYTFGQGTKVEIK
9.50

Turning now to a further record.
The reported pKd of the binder anti-IL-6 antibody, heavy chain WT, light chain I27F (antibody, IgG1, V domains shown, Full IgG1 tested; V domains derived as in m2) VH: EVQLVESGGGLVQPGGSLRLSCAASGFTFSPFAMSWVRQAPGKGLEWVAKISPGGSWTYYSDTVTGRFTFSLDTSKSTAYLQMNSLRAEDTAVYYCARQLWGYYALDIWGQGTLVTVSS VL: DIQLTQSPSSLSASVGDRVTITCSASFSVSYMYWYQQKPGKAPKLLIYDMSNLASGVPSRFSGSGSGTDFTLTISSLQPEDFATYYCMQWSGYPYTFGQGTKVEIK was 9.35
